All figures here come from paper PMC10786891.

Biological target: T1, EsCas13d, nuclease-dead (Eubacterium siraeum, UniProt B0MS50, R295A;H300A;R849A;H854A)
T1 sequence: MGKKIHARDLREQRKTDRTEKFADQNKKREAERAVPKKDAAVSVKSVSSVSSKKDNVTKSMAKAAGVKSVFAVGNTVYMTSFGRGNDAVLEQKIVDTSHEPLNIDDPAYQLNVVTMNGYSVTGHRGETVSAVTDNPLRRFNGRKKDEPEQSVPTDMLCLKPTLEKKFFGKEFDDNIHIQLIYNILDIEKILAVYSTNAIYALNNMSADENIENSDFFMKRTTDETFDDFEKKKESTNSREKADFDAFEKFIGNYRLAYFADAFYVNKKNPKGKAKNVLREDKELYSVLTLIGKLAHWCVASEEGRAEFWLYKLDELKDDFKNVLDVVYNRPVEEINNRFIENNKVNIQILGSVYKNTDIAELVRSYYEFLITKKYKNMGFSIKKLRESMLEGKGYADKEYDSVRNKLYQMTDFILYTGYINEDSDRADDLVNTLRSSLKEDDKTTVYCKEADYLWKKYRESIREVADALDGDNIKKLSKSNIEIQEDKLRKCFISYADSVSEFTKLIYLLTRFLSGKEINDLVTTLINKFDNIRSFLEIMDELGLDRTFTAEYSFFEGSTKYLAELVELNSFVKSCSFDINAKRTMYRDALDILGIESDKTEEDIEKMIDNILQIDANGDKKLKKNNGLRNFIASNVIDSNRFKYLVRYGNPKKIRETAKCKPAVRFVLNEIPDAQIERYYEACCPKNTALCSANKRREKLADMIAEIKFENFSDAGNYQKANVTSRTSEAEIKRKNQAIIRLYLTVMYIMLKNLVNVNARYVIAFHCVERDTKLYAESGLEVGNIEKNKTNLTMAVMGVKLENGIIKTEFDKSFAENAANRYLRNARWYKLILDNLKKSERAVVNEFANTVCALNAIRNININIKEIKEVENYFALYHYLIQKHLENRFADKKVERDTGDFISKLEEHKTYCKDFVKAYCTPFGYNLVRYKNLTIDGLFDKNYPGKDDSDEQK
Assay: crRNA (strand 1, pre-loaded); Mg2+; 40 mM Tris-HCl pH 7.5, 150 mM NaCl, 6 mM MgCl2, 1 mM DTT, 0.1% Tween-20, 0.2 mg/ml BSA; 25 C; 10 min per concentration, then washed
Details: tags: His6-TwinStrep-SUMO cleaved; N-terminal SNAP kept (SNAP-Surface 488); label: 3' end held by stalled T7 RNA polymerase
readout.label: Kd (nM)
# output: bare number, implied unit nM

Input: Return reported Kd; argument: target 2 MT 5'PFS AGC 3'PFS UUU (mixed) RNA 1: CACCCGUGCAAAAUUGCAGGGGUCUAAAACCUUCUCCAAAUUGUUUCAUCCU RNA 2: GGGAAUGGAUCCACAUCUACGAAUUCAGCAGGAUGAAACAAUUUGGAGAAGUUUAGAUCGGAAGAGCACACGU
Output: 20
